System: NCI-H522 lung
Test: NCI tumour cell line growth inhibition, 48 h
Please respond with reported TGI for every item in the list.

Lookup: Reported TGI for NCI-H522 lung, given CCOC(=O)c1c(-c2ccc(Br)cc2)ccn1C ?
Found: > 10 µM

Lookup: Give recorded TGI with NCI-H522 lung for the following molecule: COC1C(OC(=O)/C=C/C=C/C=C/C=C\C(=O)O)CCC2(CO2)C1C1(C)OC1CC=C(C)C (configuration not stated)
Found: > 200 µM

Lookup: What reported TGI corresponds to C[C@@H]1C2=CC[C@@]3(C)C(CCC3[C@H](C)[C@H]3C[C@@]4(C)O[C@@](c5cccnc5)(O3)OC4(C)C)[C@@H]2C2OC2[C@@]12CCC(=O)O2 (some centres not stated) on NCI-H522 lung?
Found: > 100 µM

Lookup: Return TGI measured with NCI-H522 lung given this molecule: COc1cc(S(=O)(=O)Nc2ccc(-c3csc(N4C(=O)C(Cl)C4c4ccccc4)n3)cc2)ccc1Cl (configuration not stated)
Found: 33.9 µM

Lookup: Please provide the recorded TGI for NCCCCC(=O)c1cccnc1 , tested on NCI-H522 lung.
Found: > 100 µM

Lookup: Hi! What's the reported TGI for c1cncc(C2Nc3cccc4cccc(c34)N2)c1 on NCI-H522 lung?
Found: 35.1 µM

Lookup: // fetch NCI-H522 lung TGI for COC(=O)N/N=C(/CCC(=O)Nc1ccc(C)c(C)c1)CC(=O)C(C)(C)C
Found: > 100 µM

Lookup: Form field: TGI recorded for CC12CO[C@@](C)(CC(S(=O)(=O)c3ccccc3)C1)O2 (some centres not stated) with NCI-H522 lung (enter value)
Found: > 100 µM

Lookup: What measured TGI is associated with CCOC(=O)[C@H]1Nc2ccc([N+](=O)[O-])cc2C2c3ccccc3CC21 (some centres not stated) on NCI-H522 lung?
Found: 29.3 µM

Lookup: What TGI appears in the records for this molecule with NCI-H522 lung? N#Cc1c(N)nc(N)nc1N[C@H](c1nc2c(F)ccc(Cl)c2c(=O)n1-c1cccnc1)C1CC1
Found: > 100 µM

Lookup: Please provide the recorded TGI for CCN(CC)/[N+]([O-])=N/OCOC(C)=O , tested on NCI-H522 lung.
Found: > 100 µM

Lookup: Please state recorded TGI (tested on NCI-H522 lung) of COc1cc(Nc2nnc3n2S(=O)(=O)c2cc(C)c(Cl)cc2S3)cc(OC)c1
Found: 8.44 µM

Lookup: Give NCI-H522 lung TGI for COC(=O)C(CBr)CBr
Found: 4.76 µM

Lookup: Observed TGI on NCI-H522 lung for C=C1C(=O)OC2CC(=C)C3CC=C(C)C3CC12 (configuration not stated) , please.
Found: 36.2 µM

Lookup: GET /values?readout=TGI&system=NCI-H522 lung&item= CN(C)CC1CCCCCCCCCC(CN(C)C)C1=O (configuration not stated)
Found: 10.5 µM

Lookup: Entry Oc1cccc2cc(Br)cnc12 , system NCI-H522 lung: what TGI was measured?
Found: 9.18 µM

Lookup: Query for NCI-H522 lung: what TGI does the record show for O=C(Cc1nc2ncccc2[nH]c1=O)c1c[nH]c2ccccc12 ?
Found: 35.4 µM

Lookup: Value wanted: TGI (NCI-H522 lung) of entry CCCCCCCCCCCCOc1ccc(/C=C/C2=[N+](CCCl)CCO2)cc1
Found: 47 µM

Lookup: // lookup TGI | system=NCI-H522 lung | key= CN(C)S(=O)(=O)n1cnc(CO)c1
Found: > 100 µM

Lookup: Form: Entry = CCc1cc2ncc(CN3CCN(c4ccc(C(=O)NC)nc4)CC3)cc2[nH]c1=O | System = NCI-H522 lung | TGI = ____
Found: > 100 µM

Lookup: Provide the documented TGI with NCI-H522 lung as the system for CC1(C)C2CC3C4CC5(Nc6ccccc6C5N41)[C@]3(C)CC2=O (some centres not stated)
Found: > 50 µM

Lookup: Please state recorded TGI (tested on NCI-H522 lung) of O=[N+]([O-])c1ccccc1C=NC12CC3CC(CC(C3)C1)C2
Found: > 100 µM
